Where these numbers come from: PubChem BioAssay (NCATS)

# ASSAY_PROTOCOL: Quantitative High-Throughput drug screen in 47 multiple myeloma cell lines against the NCATS MIPE library collection: U266_ATCC cell viability assay (AID 1919864); note: nearly all actives have a fitted effect of over 35% in size
# EXPERIMENTAL_PARAMETERS: U266 myeloma viability, CellTiter-Glo ATP luminescence, 48 h; series mostly up to 45.8 µM
Results filed as inconclusive are left out. Calls of active or inactive are those of the source. Calls come from the whole dose curve; as a rule, active = well fitted cell-killing curve with a large enough effect; inconclusive = small, poorly fitted or top-dose-only effect, or effect the other way; inactive = no such curve, though single readings can be large or run the other way.
Labels: true (1) for active, false (0) for inactive

Cc1cccc(C#Cc2ccccc2)n1 = false (0)
O=C1c2ccccc2-c2n[nH]c3cccc1c23 = false (0)
CCC(C)(Oc1ccc(C2(c3ccc(OC(C)(CC)C(=O)O)cc3)CCCCC2)cc1)C(=O)O (configuration not stated) = false (0)
CN(C)c1ccc2nc3ccc(=[N+](C)C)cc-3sc2c1 = true (1)
Cc1cc(Cl)ccc1OCCCC(=O)NO = true (1)
COC(=O)N[C@H](C(=O)N[C@@H](Cc1ccccc1)[C@@H](O)CN(Cc1ccc(-c2ccccn2)cc1)NC(=O)[C@@H](NC(=O)OC)C(C)(C)C)C(C)(C)C = false (0)
CN(C)c1ccc(O)c2c1C[C@H]1C[C@H]3[C@H](N(C)C)C(=O)C(C(N)=O)=C(O)[C@@]3(O)C(=O)C1=C2O = true (1)
O=C(O)c1cccc(-c2noc(-c3ccccc3F)n2)c1 = true (1)
COc1ccc2cc([C@H](C)C(=O)O)ccc2c1 = false (0)
O=C1NC(=O)C(c2ccccc2[N+](=O)[O-])=C1Nc1ccc(O)c(Cl)c1 = false (0)
Nc1ccc(S(N)(=O)=O)cc1 = false (0)
COc1cc2c(N3CCN(C(=O)Nc4ccc(OC(C)C)cc4)CC3)ncnc2cc1OCCCN1CCCCC1 = true (1)

----------
# ASSAY_PROTOCOL: Quantitative High-Throughput drug screen in 47 multiple myeloma cell lines against the NCATS MIPE library collection: MM1R_ATCC cell viability assay (AID 1918981); note: nearly all actives have a fitted effect of over 35% in size
# EXPERIMENTAL_PARAMETERS: MM1R multiple myeloma cells, CellTiter-Glo viability, 48 h; series mostly up to 45.8 µM
Records with an inconclusive call do not appear. Calls of active or inactive are those of the source. Calls come from the whole dose curve; as a rule, active = well fitted cell-killing curve with a large enough effect; inconclusive = small, poorly fitted or top-dose-only effect, or effect the other way; inactive = no such curve, though single readings can be large or run the other way.
Labels: y (active), n (inactive)

COc1c2occc2cc2ccc(=O)oc12 = n
Cc1nc2n(c(=O)c1CCN1CCC(c3noc4cc(F)ccc34)CC1)CCCC2 = n
COc1cc(Nc2c(C#N)cnc3cc(OCCCN4CCN(C)CC4)c(OC)cc23)c(Cl)cc1Cl = y
Cc1cc(C2CCCCC2)n(O)c(=O)c1 = y
Cc1cc(=O)oc2cc(O)ccc12 = y
CC(=O)O[C@H]1C(=O)[C@@]2(C)C([C@H](OC(=O)c3ccccc3)[C@]3(O)C[C@H](OC(=O)[C@H](O)[C@@H](NC(=O)c4ccccc4)c4ccccc4)C(C)=C1C3(C)C)[C@]1(OC(C)=O)CO[C@@H]1C[C@@H]2O (some centres undefined) = n
COc1c(O)cc2c(c1O)[C@@H]1O[C@H](CO)[C@@H](O)[C@H](O)[C@H]1OC2=O = n
N=C(N)c1ccc2cc(OC(=O)c3ccc(N=C(N)N)cc3)ccc2c1 = n
CN1CCC(=C2c3ccccc3CCc3sccc32)CC1 = n
CC1Cc2ccccc2N1NC(=O)c1ccc(Cl)c(S(N)(=O)=O)c1 (centres undefined) = n
O=c1oc2cc(O)ccc2s1 = n
CCC1=C(C)CN(C(=O)NCCc2ccc(S(=O)(=O)NC(=O)NC3CCC(C)CC3)cc2)C1=O (centres undefined) = n
COC(=O)C1=C(C)NC(C)=C(C(=O)OCCCN2CCC(c3ccccc3)(c3ccccc3)CC2)C1c1cccc([N+](=O)[O-])c1 (centres undefined) = y
NNc1nncc2ccccc12 = n
